meta.source: ChEMBL document CHEMBL1201862

# Tested on: U-251
# Test Summary: NCI tumour cell line growth inhibition, 48 h
Calls of active or inactive are those of the source. No stated cut-off is given here; in the data, active = GI50 up to about 1.1 µM and inactive = higher.
Recorded Endpoint: GI50

Compound	Measured Target	Result
CC(=O)c1c2c(cc3c1CC1(Cc4cc5c(cc4C1)CCC5)C3)CCC2	U-251	> 100 µM (inactive)
CC(=O)OC[C@@]1(C)[C@@H]2[C@@H]3[C@@]4(CO[C@]3(C)C(=O)[C@@]3(O)C[C@H](C)[C@H](OC(C)=O)[C@@H]3[C@H]4OC(C)=O)[C@H](OC(=O)c3ccccc3)C[C@@H]21	U-251	> 100 µM (inactive)
CN1C(=O)C(c2c[nH]c3ccccc23)N(C)C(=O)C1c1c[nH]c2ccccc12 (centres undefined)	U-251	> 100 µM (inactive)
Cn1c(=O)c2ccccc2c2ccccc21	U-251	57.1 µM (inactive)
C/C(CCc1ccccc1)=N\NC(N)=S	U-251	> 100 µM (inactive)
Cc1ccc(/C=C/C(=O)c2sc(-c3nc(C)c(C(=O)/C=C/c4ccc(C)cc4)s3)nc2C)cc1	U-251	> 100 µM (inactive)
c1ccc2c(c1)Sc1ccccc1N2CC1CN2CCC1CC2 (centres undefined)	U-251	4.24 µM (inactive)
CC(C(N)C(=O)NC(C(=O)O)C1OC(n2ccc(=O)[nH]c2=O)C(O)C1O)C(O)c1ccc(O)cn1 (centres undefined)	U-251	> 100 µM (inactive)
CCOC(=O)c1nc2ccc(C(F)(F)F)cc2nc1Oc1cc(OC)cc(OC)c1	U-251	87.9 µM (inactive)

* * *

# Tested on: A549
# Test Summary: NCI tumour cell line growth inhibition, 48 h
Calls of active or inactive are those of the source. No stated cut-off is given here; in the data, active = GI50 up to about 1.1 µM and inactive = higher.
Outcomes: Yes (active), No (inactive)

Compound	Class Assignment
COc1ccc(OC)c2cc(Cc3ccc(N(C)C)cc3)c(=O)c(Cc3ccc(N(C)C)cc3)cc12	No
COc1ccccc1/C=C1\CCC(CCN2CCOCC2)C1=O (stereo unspecified)	No
O=C1/C(=C/c2ccccc2[N+](=O)[O-])N=C(c2ccccc2)N1c1nc2ccccc2s1	No
O=C1N=C2SC=C(NC(=S)Nc3ccccc3)N2NC12c1ccccc1-c1ccccc12	No
Cc1cccc(/N=N/c2c(C)nn(C(=O)CC(=O)Nc3ccc(Cl)cc3)c2C)c1	No
O=S(O)CCCCCSSCCCCSSCCCCCS(=O)O	No
CSc1ncc2c(n1)-c1ccccc1OC2N1CCCC1 (stereo unspecified)	No
N/C(=N\N=C\c1nc2ccccc2o1)c1cnccn1	No
CC(=O)CC(N)=O	No
C/N=C(\N)N/N=C(\C)c1ccc2oc3ccc(/C(C)=N/N/C(N)=N/C)cc3c2c1	No
Brc1ccccc1/C=C\C1(c2ccccc2)OCCO1	No
O=C(Nc1sccc1S(=O)(=O)c1ccccc1)c1ccccc1	No
Cc1cc(C)nc(NS(=O)(=O)c2ccc(Nc3c4ccccc4nc4c(C(=O)Nc5ccc(S(=O)(=O)N=C(N)N)cc5)ccc(Cl)c34)cc2)n1	No
CCCCOC(=O)CNC(=O)OCCCCC#CC#CCCCCOC(=O)NCC(=O)OCCCC	No
COc1ccc(-c2cc(=O)c3ccc(O)cc3o2)c(OC)c1OC	No
CCOP(=O)(OCC)OC1C=CC2CCC1C2 (stereo unspecified)	No
C#Cc1cc(Br)c(OC(=O)C(C)(C)C)c(-c2cc(C#C)cc(Br)c2OC(=O)C(C)(C)C)c1	No
O=C(CC(=O)C1CCOC1=O)C(=O)Nc1ccc(Cl)cc1Cl (stereo unspecified)	No
O=[N+]([O-])c1ccc(-c2ccc(C3=Nn4c(nnc4-c4ccc(Cl)cc4)SC3)o2)cc1	No
CCOC(=O)/C(C#N)=C/Nc1c(C)n(C)n(-c2ccccc2)c1=O	No
Cc1cc(N)ccc1C=O	No
CC1=NN(c2ccccc2Cl)C2(C1)C(Cl)C(=O)N2c1nc2ccccc2s1 (stereo unspecified)	No
COc1ccc(/C=N/NC(=O)c2ccccc2Nc2ccccc2C(=O)N/N=C/c2ccc(OC)c(OC)c2)cc1OC	No
CN(C)c1ccc(/C=c2/sc3nc(=O)c(-c4ccccc4NC(=O)C(F)(F)F)nn3c2=O)cc1	No
Cn1c(=O)c2ccccc2c2ccccc21	No
C#CCSc1nc(N)c2ncn(C3OC(CO)C(O)C3O)c2n1 (stereo unspecified)	No
COC1(OC)N=C(N)C2(C#N)C(c3ccccc3)NC3=C(CCC3)C12C#N (stereo unspecified)	No
C[C@@H]1C[C@@H](O)[C@]2(O)O[C@@H]3C[C@@]4(C=O)[C@@H](CC[C@@H]5[C@@H]4CC[C@]4(C)[C@@H](C6=CC(=O)OC6)CC[C@]54O)C[C@H]3O[C@@H]2O1	Yes
C=C1CCC2(C(C)=O)COC1(C)O2 (stereo unspecified)	No
CC(=O)Oc1ccc2c(c1)[nH]c1c3ccc(OC(C)=O)cc3oc(=O)c21	No
CN(C)CCNc1ccc2c(=O)n(CCN(C)C)c(=O)n3c4ccc(N)cc4c(=O)c1c23	Yes
CCOC(=O)/C=C(/C)Nc1nc2c(c(C(=O)OC)c1C#N)CCCC2	No
C/C=C/C1(C)/C(=N\O)C(C)(CCC)C(=O)N1O (stereo unspecified)	No
C=C1CCOC2(C(O)C(C)(O)CO)NC(=O)C1(O)NC2=O (stereo unspecified)	No
CC1=C(CO)C2=C(C)C3(CC3)[C@@](C)(O)C(=O)C2=C1	Yes
COC(=O)[C@@H]1[C@H]2CC[C@]3(C)[C@@H](OC(C)=O)CC[C@H]3[C@@H]2CC[C@H]1C(C)=O	No
CC1=NN(C(=O)c2ccc(Cl)cc2)C(=O)/C1=C/c1ccco1	No
CCOC(=O)Cc1nnc2c(-c3ccccc3)nc3ccccc3n12	No
CCOC(=O)Cc1csc(N/C=C2/C(=O)Oc3ccccc3C2=O)n1	No
Cc1cc2c(c3c1c1ccccc1n3C)C(=O)c1ccccc1C2=O	No
CC(=O)Nc1ccc2nc(-c3ccccn3)c(-c3ccccn3)nc2c1	No
